System: Rattus norvegicus
experimentalDetails: Toxicity in rat assessed as time spent on rotarod at 40 mg/kg, ip by rotarod test
Format: organism-based
Set-up: dose 40 mg/kg, route intraperitoneal
conditionDetails: in vivo
readoutLabel: Time (s)
Report only the number, with the unit s understood.

1. O=C1CSC(c2ccccc2Br)N1c1nnc(Cn2c3ccccc3c3ccccc32)o1 (stereo unspecified) ... 96.6

Data request: // query Time value for entry O=C1CSC(c2ccc(O)cc2)N1c1nnc(Cn2c3ccccc3c3ccccc32)s1 (stereo unspecified)
Data returned: 100.6

Data request: // query Time value for entry COc1cc(/C=N/c2nnc(Cn3c4ccccc4c4ccccc43)o2)ccc1O
Data returned: 112.2

Data request: // query Time value for entry O=C1C(Cl)C(c2ccc(O)cc2)N1c1nnc(Cn2c3ccccc3c3ccccc32)o1 (stereo unspecified)
Data returned: 104.6

Data request: // query Time value for entry CN(C)c1ccc(C2C(Cl)C(=O)N2c2nnc(Cn3c4ccccc4c4ccccc43)o2)cc1 (stereo unspecified)
Data returned: 100.2

Data request: // query Time value for entry COc1cc(/C=N/c2nnc(Cn3c4ccccc4c4ccccc43)s2)ccc1O
Data returned: 106.8

Data request: // query Time value for entry CN(C)c1ccc(/C=N/c2nnc(Cn3c4ccccc4c4ccccc43)o2)cc1
Data returned: 114

Data request: // query Time value for entry Brc1ccccc1/C=N/c1nnc(Cn2c3ccccc3c3ccccc32)s1
Data returned: 106.8

Data request: // query Time value for entry Oc1ccc(/C=N/c2nnc(Cn3c4ccccc4c4ccccc43)s2)c(O)c1
Data returned: 108.6

Data request: // query Time value for entry CN(C)c1ccc(C2C(Cl)C(=O)N2c2nnc(Cn3c4ccccc4c4ccccc43)s2)cc1 (stereo unspecified)
Data returned: 106

Data request: // query Time value for entry COc1cc(C2C(Cl)C(=O)N2c2nnc(Cn3c4ccccc4c4ccccc43)s2)ccc1O (stereo unspecified)
Data returned: 102.4

Data request: // query Time value for entry Brc1ccccc1/C=N/c1nnc(Cn2c3ccccc3c3ccccc32)o1
Data returned: 110.8

Data request: // query Time value for entry O=C1CSC(c2ccccc2Br)N1c1nnc(Cn2c3ccccc3c3ccccc32)s1 (stereo unspecified)
Data returned: 96

Data request: // query Time value for entry O=C1CSC(c2ccc(O)cc2O)N1c1nnc(Cn2c3ccccc3c3ccccc32)o1 (stereo unspecified)
Data returned: 104.4

----------
Tested on: Rattus norvegicus
experimentalDetails: Anticonvulsant activity in rat assessed as protection against maximal electric shock-induced seizures at 40 mg/kg, ip
Assay type: functional
conditionDetails: route intraperitoneal
readoutLabel: Activity (%)
Report only the number, with the unit % understood.

Past entries and their recorded results:
1. O=C1C(Cl)C(c2ccc(O)cc2O)N1c1nnc(Cn2c3ccccc3c3ccccc32)o1 (stereo not given) ... 50
2. O=C1CSC(c2ccccc2Br)N1c1nnc(Cn2c3ccccc3c3ccccc32)o1 (stereo not given) ... 70
3. O=C1CSC(c2ccccc2Br)N1c1nnc(Cn2c3ccccc3c3ccccc32)s1 (stereo not given) ... 90
4. CN(C)c1ccc(C2C(Cl)C(=O)N2c2nnc(Cn3c4ccccc4c4ccccc43)o2)cc1 (stereo not given) ... 40

Data request: // query Activity value for entry Oc1ccc(/C=N/c2nnc(Cn3c4ccccc4c4ccccc43)s2)cc1
Data returned: 40

Data request: // query Activity value for entry O=C1CSC(c2ccc(O)cc2)N1c1nnc(Cn2c3ccccc3c3ccccc32)o1 (stereo not given)
Data returned: 60

Data request: // query Activity value for entry O=C1CSC(c2ccc(O)cc2O)N1c1nnc(Cn2c3ccccc3c3ccccc32)s1 (stereo not given)
Data returned: 70

Data request: // query Activity value for entry CN(C)c1ccc(C2SCC(=O)N2c2nnc(Cn3c4ccccc4c4ccccc43)o2)cc1 (stereo not given)
Data returned: 60

Data request: // query Activity value for entry COc1cc(C2SCC(=O)N2c2nnc(Cn3c4ccccc4c4ccccc43)o2)ccc1O (stereo not given)
Data returned: 70

Data request: // query Activity value for entry Oc1ccc(/C=N/c2nnc(Cn3c4ccccc4c4ccccc43)o2)cc1
Data returned: 20
